Species: Rattus norvegicus
methodNotes: DrugMatrix - Regimen: Daily Repeat
Format: toxicity, organism-based, Sprague-Dawley
Design: regimen Daily Repeat, gender Male, age 6-8 weeks
particulars: in vivo, po, 0 mg/kg, 120 h, tissue Plasma, route oral GAVAGE, dose level Control, time 5 day, vehicle .5 % CMC
Below, each entry is listed with its recorded PHOSPHORUS.
measuredAttribute: PHOSPHORUS (mg/dL)

{"columns": ["molecule", "resultNumber"],
 "data": [
  ["ClC(Cl)Br [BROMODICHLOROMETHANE]", 13.02],
  ["CCOP(=S)(OCC)Oc1nc(Cl)c(Cl)cc1Cl [CHLORPYRIFOS]", 14.53],
  ["Cc1nc2n(c(=O)c1CCN1CCC(c3noc4cc(F)ccc34)CC1)CCCC2 [RISPERIDONE]", 9.72],
  ["CN1CCN(CCCN2c3ccccc3Sc3ccc(Cl)cc32)CC1 [PROCHLORPERAZINE]", 12.32],
  ["CC1CC(OC(=O)C(O)c2ccccc2)CC(C)(C)C1 (stereo not drawn) [CYCLANDELATE]", 9.53],
  ["C1CCC(C(CC2CCCCN2)C2CCCCC2)CC1 (stereo not drawn) [PERHEXILINE]", 12.27],
  ["CCCCc1oc2ccccc2c1C(=O)c1cc(I)c(OCCN(CC)CC)c(I)c1 [AMIODARONE]", 9.72],
  ["COc1nc(C)nc(Cl)c1N=C1NCCN1 [MOXONIDINE]", 12],
  ["O=C(CCCN1CC=C(n2c(=O)[nH]c3ccccc32)CC1)c1ccc(F)cc1 [DROPERIDOL]", 11.8],
  ["NC1=NC(=O)C(c2ccccc2)O1 (stereo not drawn) [PEMOLINE]", 10.87],
  ["OCCN(CCO)c1nc(N2CCCCC2)c2nc(N(CCO)CCO)nc(N3CCCCC3)c2n1 [DIPYRIDAMOLE]", 9.53],
  ["N=C(N)NCCN1CCCCCCC1 [GUANETHIDINE]", 9.53],
  ["CC(C)(C)NC(=O)[C@@H]1C[C@@H]2CCCC[C@@H]2CN1C[C@@H](O)[C@H](Cc1ccccc1)NC(=O)[C@H](CC(N)=O)NC(=O)c1ccc2ccccc2n1", 11.48],
  ["CCn1cc(C(=O)O)c(=O)c2cc(F)c(N3CCNCC3)cc21 [NORFLOXACIN]", 11.38],
  ["Nc1ccn([C@H]2CC[C@@H](CO)O2)c(=O)n1 [ZALCITABINE]", 9.5],
  ["ClC(Br)Br [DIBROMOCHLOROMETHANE]", 13.02],
  ["Cc1ccc(/N=C/N(C)/C=N/c2ccc(C)cc2C)c(C)c1 [AMITRAZ]", 11.38],
  ["CCCN1C[C@H](CSC)C[C@@H]2c3cccc4[nH]cc(c34)C[C@H]21 [PERGOLIDE]", 12.45]
]}

###

Species on record: Rattus norvegicus
methodNotes: DrugMatrix - Regimen: Daily Repeat
Assay type: toxicity, organism-based, Sprague-Dawley
Set-up: regimen Daily Repeat, gender Male, age 6-8 weeks
particulars: in vivo, iv, 0 mg/kg, 120 h, tissue Plasma, dose level Control, time 5 day, vehicle 100 % SALINE
Starred links: 1 amine or outer side, 2 acyl side, 3 side chain; linkers in the order of their positions; H or OH if unused. Positions of bridges follow the written chain, without caps; N, C: chain ends. Non-standard residues stand in square brackets, D forms with d. Residues, ends and D or L forms follow the SMILES beside them. Chains are numbered I, II in the order given. Actinocin(9to1) = Cc1c2oc3c(C)ccc(C(=O)[*:1])c3nc-2c(C(=O)[*:2])c(N)c1=O; NMeV = CN[C@H](C(=O)O)C(C)C; Sar = CNCC(=O)O
Below, each entry is listed with its recorded ASPARTATE AMINOTRANSFERASE.

{"columns": ["compound", "ASPARTATE AMINOTRANSFERASE (u/L)"],
 "data": [
  ["COc1cc2c3cc1Oc1cc(ccc1O)C[C@@H]1c4c(cc(OC)c(O)c4Oc4ccc(cc4)C[C@@H]3N(C)CC2)CC[N+]1(C)C.[Cl-]", 105.33],
  ["Cc1ccc(N(CC2=NCCN2)c2cccc(O)c2)cc1", 90.83],
  ["Cc1c2oc3c(C)ccc(C(=O)N[C@@H]4C(=O)N[C@H](C(C)C)C(=O)N5CCC[C@H]5C(=O)N(C)CC(=O)N(C)[C@@H](C(C)C)C(=O)O[C@@H]4C)c3nc-2c(C(=O)N[C@@H]2C(=O)N[C@H](C(C)C)C(=O)N3CCC[C@H]3C(=O)N(C)CC(=O)N(C)[C@@H](C(C)C)C(=O)O[C@@H]2C)c(N)c1=O [DACTINOMYCIN] (I: T[dV]P[Sar][NMeV] / II: T[dV]P[Sar][NMeV]; ester I:1-I:C, II:1-II:C; linker I:N-II:N via Actinocin(9to1))", 100.5],
  ["CC[C@]1(O)C[C@H]2CN(CCc3c([nH]c4ccccc34)[C@@](C(=O)OC)(c3cc4c(cc3OC)N(C=O)[C@H]3[C@@](O)(C(=O)OC)[C@H](OC(C)=O)[C@]5(CC)C=CCN6CC[C@]43[C@@H]65)C2)C1", 82.5]
]}

###

Organism: Rattus norvegicus
methodNotes: DrugMatrix - Regimen: Daily Repeat
Assay type: toxicity, organism-based, Sprague-Dawley
Design: regimen Daily Repeat, gender Male, age 6-8 weeks
particulars: in vivo, po, 0 mg/kg, 72 h, tissue Blood, route oral GAVAGE, dose level Control, time 3 day, […]
Below, each entry is listed with its recorded MEAN CORPUSCULAR HEMOGLOBIN CONCENTRATION.
measuredAttribute: MEAN CORPUSCULAR HEMOGLOBIN CONCENTRATION (G/DL)

{"columns": ["molecule", "resultNumber"],
 "data": [
  ["CC(C)C(=O)Nc1ccc([N+](=O)[O-])c(C(F)(F)F)c1 [FLUTAMIDE]", 39.05],
  ["CCC(C)n1ncn(-c2ccc(N3CCN(c4ccc(OCC5COC(Cn6cncn6)(c6ccc(Cl)cc6Cl)O5)cc4)CC3)cc2)c1=O (stereo unspecified) [ITRACONAZOLE]", 39.78],
  ["O=c1oc2ccccc2c(O)c1Cc1c(O)c2ccccc2oc1=O [DICUMAROL]", 39.03],
  ["Cc1noc(NS(=O)(=O)c2ccc(N)cc2)c1C [SULFISOXAZOLE]", 38.1],
  ["Cc1oncc1C(=O)Nc1ccc(C(F)(F)F)cc1 [LEFLUNOMIDE]", 39.07],
  ["CC(C)(Oc1ccc(Cl)cc1)C(=O)O [CLOFIBRIC ACID]", 39.82]
]}

###

Below, each entry is listed with its recorded CARBON DIOXIDE.
Species on record: Rattus norvegicus
methodNotes: DrugMatrix - Regimen: Daily Repeat
Format: toxicity, organism-based, Sprague-Dawley
Set-up: regimen Daily Repeat, gender Male, age 6-8 weeks
particulars: in vivo, iv, 0 mg/kg, 120 h, tissue Plasma, dose level Control, time 5 day, vehicle 100 % SALINE
Starred links: 1 amine or outer side, 2 acyl side, 3 side chain; linkers in the order of their positions; H or OH if unused. Positions of bridges follow the written chain, without caps; N, C: chain ends. Non-standard residues stand in square brackets, D forms with d. Residues, ends and D or L forms follow the SMILES beside them. Chains are numbered I, II in the order given. Actinocin(9to1) = Cc1c2oc3c(C)ccc(C(=O)[*:1])c3nc-2c(C(=O)[*:2])c(N)c1=O; NMeV = CN[C@H](C(=O)O)C(C)C; Sar = CNCC(=O)O
measuredAttribute: CARBON DIOXIDE (mmol/L)

{"columns": ["molecule", "measuredAttribute", "measurementUnit", "resultNumber"],
 "data": [
  ["CC[C@]1(O)C[C@H]2CN(CCc3c([nH]c4ccccc34)[C@@](C(=O)OC)(c3cc4c(cc3OC)N(C=O)[C@H]3[C@@](O)(C(=O)OC)[C@H](OC(C)=O)[C@]5(CC)C=CCN6CC[C@]43[C@@H]65)C2)C1", "CARBON DIOXIDE", "mmol/L", 32.33],
  ["COc1cc2c3cc1Oc1cc(ccc1O)C[C@@H]1c4c(cc(OC)c(O)c4Oc4ccc(cc4)C[C@@H]3N(C)CC2)CC[N+]1(C)C.[Cl-]", "CARBON DIOXIDE", "mmol/L", 26.5],
  ["Cc1ccc(N(CC2=NCCN2)c2cccc(O)c2)cc1", "CARBON DIOXIDE", "mmol/L", 26.5],
  ["Cc1c2oc3c(C)ccc(C(=O)N[C@@H]4C(=O)N[C@H](C(C)C)C(=O)N5CCC[C@H]5C(=O)N(C)CC(=O)N(C)[C@@H](C(C)C)C(=O)O[C@@H]4C)c3nc-2c(C(=O)N[C@@H]2C(=O)N[C@H](C(C)C)C(=O)N3CCC[C@H]3C(=O)N(C)CC(=O)N(C)[C@@H](C(C)C)C(=O)O[C@@H]2C)c(N)c1=O [DACTINOMYCIN] (I: T[dV]P[Sar][NMeV] / II: T[dV]P[Sar][NMeV]; ester I:1-I:C, II:1-II:C; linker I:N-II:N via Actinocin(9to1))", "CARBON DIOXIDE", "mmol/L", 28.83]
]}
